Below, each of the compounds is paired with its reported inhibition at 1 µM value.
- system.name: FAAH (Mus musculus)
- Construct: Proteomes (mouse brain membrane fraction or cell lysates); from tissue; host or cells: mouse brain membrane fraction (or cell lysates, not specified)
- Sequence (O08914 whole entry): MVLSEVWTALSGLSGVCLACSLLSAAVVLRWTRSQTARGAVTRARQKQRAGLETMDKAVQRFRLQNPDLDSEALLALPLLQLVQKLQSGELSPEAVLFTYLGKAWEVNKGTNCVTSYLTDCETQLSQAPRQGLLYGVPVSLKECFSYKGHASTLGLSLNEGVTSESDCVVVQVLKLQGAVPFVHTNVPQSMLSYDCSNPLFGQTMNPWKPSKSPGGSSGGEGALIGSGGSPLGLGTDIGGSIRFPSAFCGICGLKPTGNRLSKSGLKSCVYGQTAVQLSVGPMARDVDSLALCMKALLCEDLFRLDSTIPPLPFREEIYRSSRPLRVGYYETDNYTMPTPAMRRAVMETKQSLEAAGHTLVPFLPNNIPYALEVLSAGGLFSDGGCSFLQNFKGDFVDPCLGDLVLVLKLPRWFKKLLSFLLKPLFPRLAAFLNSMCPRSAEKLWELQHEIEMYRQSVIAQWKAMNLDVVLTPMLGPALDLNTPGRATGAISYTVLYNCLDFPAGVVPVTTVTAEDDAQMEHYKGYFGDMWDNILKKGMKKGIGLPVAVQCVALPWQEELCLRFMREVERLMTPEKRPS
- test.details: In vitro competitive activity-based protein profiling (gel-based, FP-Rh or HT-01 probe)
- Type: biochemical
- assay.setup: 1 μM inhibitor; read-out: % Inhibition at 1 μM, B = FAAH

Sample records with inhibition at 1 µM:
O=C(N1CCN(Cc2cccc(Oc3ccccc3)c2)CC1)n1cc(Cl)cn1 [Example 216] :: > 75%
CS(=O)(=O)N1CCCN(C(=O)n2cc(C#N)cn2)CC1 [Example 178] :: < 25%
N#Cc1cnn(C(=O)N2CCN(Cc3ccccc3)CC2)c1 [Example 9] :: > 75%
O=C(N1CCN(Cc2ccc3ccccc3c2)CC1)n1cc(Br)cn1 [Example 13] :: > 75%
Cc1ccccc1-c1cnn(C(=O)N2CCN(Cc3c(N4CCCC4)cccc3C(F)(F)F)CC2)c1 [Example 114] :: < 25%
N#Cc1cnn(C(=O)N2CCN(C(=O)c3ccccc3)CC2)c1 [Example 176] :: < 25%
O=C(N1CCCN(Cc2ccccc2)CC1)n1cc(C(F)(F)F)cn1 [Example 157] :: > 75%
Cc1cnn(C(=O)N2CCN(Cc3ccc(-c4ccccc4)cc3)CC2)c1 [Example 23] :: < 25%
O=C(N1CCN(Cc2ccc(Cl)c(Cl)c2)CC1)n1cc(Cl)cn1 [Example 211] :: > 75%
Cc1cc(-c2ccccc2)ccc1CN1CCN(C(=O)n2cc(C(F)(F)F)cn2)CC1 [Example 142] :: > 75%

## Task Item CC(=O)N1CCN(C(=O)n2cc(C#N)cn2)CC1 [Example 173] has what recorded inhibition at 1 µM?
## Result < 25%

## Task Further, for O=C(N1CCN(Cc2ccccc2Cl)CC1)n1cc(Cl)cn1 [Example 224] ?
## Result > 75%

## Task Now try O=C(N1CCN(Cc2ccc(Oc3ccccc3)cc2)CC1)n1cccn1 [Example 16] .
## Result < 25%

## Task Okay, and CN(Cc1cccc(-c2ccncc2)c1)C(=O)n1cc(C#N)cn1 [Example 221] ?
## Result > 75%

## Task Query Cc1cnn(C(=O)N2CCN(C(=O)c3ccccc3)CC2)c1 [Example 164] next
## Result < 25%

## Task Quick one: Cc1cc(-c2ccccc2)ccc1CN1CCN(C(=O)n2cc(C(=O)N3CCOCC3)cn2)CC1 [Example 57]
## Result > 75%

## Task Can you handle O=C(N1CCN(Cc2c(N3CCCC3)cccc2C(F)(F)F)CC1)n1cc(Cl)cn1 [Example 99] next?
## Result > 75%

## Task Note, next up: O=C(c1cnn(C(=O)N2CCN(Cc3ccc4c(c3)OCO4)CC2)c1)N1CCCCC1 [Example 69]
## Result > 75%

## Task Here is the next compound: O=C(N1CCN(c2ccccc2)CC1)n1cc(C(F)(F)F)cn1 [Example 202]
## Result > 75%

The measured values listed here are drawn from patent US10093630B2.
